Source listed as ChEMBL document CHEMBL1148768.

Tested on: SF-539
Test: Cytotoxicity against human SF539 cells
Format: functional
The following compounds are listed with their measured GI50 values.
Measured quantity: GI50 (nM)

COc1ccc2c(c1)C(=O)c1c-2n(CCCN2CCOCC2)c(=O)c2ccccc12: 1950
O=C1c2ccccc2-c2c1c1ccc([N+](=O)[O-])cc1c(=O)n2CCCN1CCOCC1: 95
[N-]=[N+]=NCCCn1c2c(c3ccc([N+](=O)[O-])cc3c1=O)C(=O)c1ccccc1-2: 79400
COc1ccc2c(c1)C(=O)c1c-2n(CCCn2ccnc2)c(=O)c2ccccc12: 178

---

The following molecules are listed with their measured log10 GI50 values.
Test system: MDA-MB-435
Assay: Cytotoxicity against human MDA-MB-435 cells
Assay type: functional
Measured quantity: log10 GI50 (log10 of the value in nM)

COc1cc2c3c(n(C)c(=O)c2cc1OC)-c1cc2c(cc1C3=O)OCO2: 4.98
O=C1c2ccccc2-c2c1c1ccc([N+](=O)[O-])cc1c(=O)n2CCCN1CCOCC1: 3.09
O=C1c2ccccc2-c2c1c1ccccc1c(=O)n2CCCNCCO: 2.69
COc1ccc2c(c1)C(=O)c1c-2n(CCCI)c(=O)c2cc([N+](=O)[O-])ccc12: 3.17
COc1ccc2c(c1)C(=O)c1c-2n(CCCN(C)C)c(=O)c2ccccc12: 2.79
COc1ccc2c(c1)C(=O)c1c-2n(CCCn2ccnc2)c(=O)c2ccccc12: 2.81
COc1ccc2c(c1)C(=O)c1c-2n(CCCN2CCOCC2)c(=O)c2ccccc12: 3.67
COc1ccc2c(c1)C(=O)c1c-2n(CCCN)c(=O)c2ccccc12: 1.77
COc1ccc2c(c1)C(=O)c1c-2n(CCCNCCO)c(=O)c2ccccc12: 2.59
NCCCn1c2c(c3ccccc3c1=O)C(=O)c1ccccc1-2: 2.89
O=C1c2ccccc2-c2c1c1ccc([N+](=O)[O-])cc1c(=O)n2CCCNCCO: 3.03
COc1ccc2c(c1)C(=O)c1c-2n(CCCN=[N+]=[N-])c(=O)c2ccccc12: 4.81

---

System: SF-539
Experiment: Cytotoxicity against human SF539 cells
Format: functional
Categorized via GI50: b0 (below 100 nM), b1 (100 nM to below 600 nM), b2 (600 nM or more)

NCCCn1c2c(c3ccc([N+](=O)[O-])cc3c1=O)C(=O)c1ccccc1-2: b1
COc1ccc2c(c1)C(=O)c1c-2n(CCCN)c(=O)c2ccccc12: b0
COc1ccc2c(c1)C(=O)c1c-2n(CCCI)c(=O)c2cc([N+](=O)[O-])ccc12: b0
COc1ccc2c(c1)C(=O)c1c-2n(CCCNCCO)c(=O)c2cc([N+](=O)[O-])ccc12: b0
NCCCn1c2c(c3ccccc3c1=O)C(=O)c1ccccc1-2: b1
COc1ccc2c(c1)C(=O)c1c-2n(CCCN=[N+]=[N-])c(=O)c2ccccc12: b2
O=C1c2ccccc2-c2c1c1ccccc1c(=O)n2CCCN1CCOCC1: b2
COc1ccc2c(c1)C(=O)c1c-2n(CCCN(C)C)c(=O)c2ccccc12: b1
COc1ccc2c(c1)C(=O)c1c-2n(CCCNCCO)c(=O)c2ccccc12: b1
O=C1c2ccccc2-c2c1c1ccccc1c(=O)n2CCCNCCO: b1

---

Test system: SF-539
Test: Cytotoxicity against human SF539 cells
Format: functional
Measured quantity: GI50

COc1ccc2c(c1)C(=O)c1c-2n(CCCN(C)C)c(=O)c2cc([N+](=O)[O-])ccc12: < 0.01 µM
O=C1c2ccccc2-c2c1c1ccc([N+](=O)[O-])cc1c(=O)n2CCCBr: > 100 µM
COc1ccc2c(c1)C(=O)c1c-2n(CCCn2ccnc2)c(=O)c2cc([N+](=O)[O-])ccc12: < 0.01 µM
O=C1c2ccccc2-c2c1c1ccc([N+](=O)[O-])cc1c(=O)n2CCCNCCO: > 100 µM

---

System: MDA-MB-435
Test: Cytotoxicity against human MDA-MB-435 cells
Format: functional
Measured quantity: GI50

COc1ccc2c(c1)C(=O)c1c-2n(CCCn2ccnc2)c(=O)c2cc([N+](=O)[O-])ccc12: < 10 nM
COc1ccc2c(c1)C(=O)c1c-2n(CCCN2CCOCC2)c(=O)c2cc([N+](=O)[O-])ccc12: < 10 nM
O=C1c2ccccc2-c2c1c1ccccc1c(=O)n2CCCN1CCOCC1: > 100000 nM
COc1ccc2c(c1)C(=O)c1c-2n(CCCN(C)C)c(=O)c2cc([N+](=O)[O-])ccc12: < 10 nM
COc1ccc2c(c1)C(=O)c1c-2n(CCCNCCO)c(=O)c2cc([N+](=O)[O-])ccc12: < 10 nM
